Read-out: Forkhead box O3 (FOXO3), FOXO3 (gene 2309)
assayInfo: LTEA_HepaRG_FOXO3: Life Technologies and Expression Analysis (LTEA) Assay for Forkhead box O3 (FOXO3) using HepaRG (AID 2283459)
conditionDescription: mRNA level, 48 h; actives raise or lower the signal
Activity calls are given as the source filed them. The calls were made as follows: active = hit-call score of the fitted dose curve at least 0.9, where 1 is the maximum; inactive = score below 0.9.
Pick one and only one: active, inactive

Example results:
>  <molecule>
CC1=C(C)S(=O)(=O)CCS1(=O)=O

>  <labelValue>
active

$$$$
>  <molecule>
O=C(O)CN(CC(=O)O)CC(=O)O

>  <labelValue>
inactive

$$$$
>  <molecule>
c1ccc2occc2c1

>  <labelValue>
inactive

$$$$
>  <molecule>
O=NO

>  <labelValue>
inactive

$$$$
>  <molecule>
CCCCCCCC(=O)OC

>  <labelValue>
inactive

$$$$

Req: GET /call?item= CCCCCCC(CCCCCCCCCCC(=O)OCC(COC(C)=O)OC(C)=O)OC(C)=O (configuration not stated) returns the recorded outcome of this test.
Resp: inactive

Req: Could you check what this test reported for `O=C(O)c1[nH]n(-c2ccc(S(=O)(=O)O)cc2)c(=O)c1N=Nc1ccc(S(=O)(=O)O)cc1` ?
Resp: inactive
